Test system: SW620 cancer cells
Assay: In vitro combination study with Compound 1, Cell Titer-Glo (ATP) cell viability, 72 h;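 also: Ten-by-ten dose matrices of both drugs in 384-well plates, luminescent ATP read-out, synergy evaluated against single-agent and DMSO vehicle controls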
Assay type: cell-based
Conditions: DNA damaging agent combined with Compound 1; 72 h
Counter-ions that a name gives are not always drawn.
measured.quantity: Call, anti-proliferative effect of combination with Compound 1, SW620

{"columns": ["molecule", "assay.value"],
 "data": [
  ["S=P(N1CC1)(N1CC1)N1CC1", "Synergy (0 to 0.7)"],
  ["O=C1c2c(O)ccc(O)c2C(=O)c2c(NCCNCCO)ccc(NCCNCCO)c21 [Mitoxantrone hydrochloride]", "Synergy (0 to 0.7)"]
]}

###

Tested on: HCT116 cancer cells
Experiment: In vitro combination study with Compound 1, Cell Titer-Glo (ATP) cell viability, 72 h;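 also: combination call from 10×10 dose matrices in duplicate, graded by synergy, with percent activity per well relative to DMSO vehicle controls on the same plate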
Assay type: cell-based
Details: Table 5 drug combined with Compound 1; 72 h
measured.quantity: Call, anti-proliferative effect of combination with Compound 1, HCT116

Answered examples (5):
{"columns": ["compound", "assay.value"],
 "data": [
  ["CO[C@H]1/C=C\\C=C(/C)C(=O)NC2=CC(=O)C(NCCN(C)C)=C(C[C@@H](C)C[C@H](OC)[C@H](O)[C@@H](C)/C=C(\\C)[C@@H]1OC(N)=O)C2=O", "Additivity (0.7 to 1.3)"],
  ["Cn1c(=O)n(-c2ccc(C(C)(C)C#N)cc2)c2c3cc(-c4cnc5ccccc5c4)ccc3ncc21", "Additivity (0.7 to 1.3)"],
  ["Nc1ccccc1NC(=O)c1ccc(CNC(=O)OCc2cccnc2)cc1", "Additivity (0.7 to 1.3)"],
  ["CS(=O)(=O)N1CCN(Cc2cc3nc(-c4cccc5[nH]ncc45)nc(N4CCOCC4)c3s2)CC1", "Synergy (0 to 0.7)"],
  ["COc1cc([C@@H]2c3cc4c(cc3[C@@H](O[C@@H]3O[C@@H]5CO[C@@H](C)O[C@H]5[C@H](O)[C@H]3O)[C@H]3COC(=O)[C@H]23)OCO4)cc(OC)c1O [Etoposide]", "Synergy (0 to 0.7)"]
]}

I have this compound here, Nc1ncn([C@@H]2O[C@H](CO)[C@@H](O)[C@H]2O)c(=O)n1 , and I need its recorded Call, anti-proliferative effect of combination with Compound 1, HCT116.
Additivity (0.7 to 1.3)

I have this compound here, CN1CC[C@H](c2c(O)cc(O)c3c(=O)cc(-c4ccccc4Cl)oc23)[C@H](O)C1 , and I need its recorded Call, anti-proliferative effect of combination with Compound 1, HCT116.
Additivity (0.7 to 1.3)

I have this compound here, COC1=CC(c2cc3ccccc3[nH]2)=N/C1=C\c1[nH]c(C)cc1C , and I need its recorded Call, anti-proliferative effect of combination with Compound 1, HCT116.
Additivity (0.7 to 1.3)

I have this compound here, CO/C1=C\C(C)=C\[C@@H](C)[C@@H](O)[C@@H](C)C/C(C)=C/C=C/[C@H](OC)[C@@H]([C@@H](C)[C@@H](O)[C@H](C)[C@@]2(O)C[C@@H](O)[C@H](C)[C@@H](C(C)C)O2)OC1=O , and I need its recorded Call, anti-proliferative effect of combination with Compound 1, HCT116.
Additivity (0.7 to 1.3)

I have this compound here, Nc1cc(C(F)(F)F)c(-c2cc(N3CCOCC3)nc(N3CCOCC3)n2)cn1 , and I need its recorded Call, anti-proliferative effect of combination with Compound 1, HCT116.
Additivity (0.7 to 1.3)
